test summary: GLP 28-day repeat oral dose toxicity and toxicokinetics, monkey
Assay type: in vivo
study conditions: in vivo, po; Monkey Male; 20 mg/kg/day (NOAEL), daily dosing for 28 days

# molecule, units symbol, Cmax
data = [
    ("N#Cc1cnc(Nc2cc(NCC3CNCCO3)c(C(F)(F)F)cn2)cn1 (stereo not shown)", "ng/mL", 3170),
]

###

test summary: Phase 1 clinical trial, SRA737 in combination with gemcitabine dose escalation
Format: in vivo, human
study conditions: human, plasma, oral; 600 mg; Day −7; mean, n = 4
Procedure: A Phase 1 clinical trial was conducted in ‘all corners,’ i.e. no genetic selection was performed, to establish safety, tolerability and pharmacokinetics for SRA737 administered in combination with gemcitabine (“Dose Escalation Phase”). […] At this dose, the Cmin (52 ng/mL) exceeded that determined in preclinical models to be effective. Additional cohorts are monitored escalating the dose of SRA737 until the maximum tolerated dose (MTD) is identified and to optimize combination dosing with gemcitabine. […]

# compound, units symbol, half-life
rows = [
    ("N#Cc1cnc(Nc2cc(NCC3CNCCO3)c(C(F)(F)F)cn2)cn1 (stereo not shown) [SRA737]", "h", 11.1),
]

###

test summary: Phase 1 clinical trial, SRA737 monotherapy dose escalation
Assay type: in vivo, human
study conditions: human, in vivo, 1300 mg, T1/2

# molecule, half-life, h
records = [
    ("N#Cc1cnc(Nc2cc(NCC3CNCCO3)c(C(F)(F)F)cn2)cn1 (stereo not shown)", 11.8),
]

###

test summary: GLP 28-day repeat oral dose toxicity and toxicokinetics, minipig
Format: in vivo
study conditions: in vivo, po; Minipig Female; 40 mg/kg/day, daily dosing for 28 days
experimental endpoint: Cmax (ng/mL)

# molecule, experimental endpoint, obs value
measured = [
    ("N#Cc1cnc(Nc2cc(NCC3CNCCO3)c(C(F)(F)F)cn2)cn1 (stereo not shown)", "Cmax", 2830),
]

###

test summary: Phase 1 clinical trial, SRA737 in combination with gemcitabine dose escalation
Type: in vivo, human
study conditions: human, plasma, oral, 300 mg; Day −7; mean, n = 7
Description: A Phase 1 clinical trial was conducted in ‘all corners,’ i.e. no genetic selection was performed, to establish safety, tolerability and pharmacokinetics for SRA737 administered in combination with gemcitabine (“Dose Escalation Phase”). […] At this dose, the Cmin (52 ng/mL) exceeded that determined in preclinical models to be effective. Additional cohorts are monitored escalating the dose of SRA737 until the maximum tolerated dose (MTD) is identified and to optimize combination dosing with gemcitabine. […]

# compound, units symbol, Cmax
rows = [
    ("N#Cc1cnc(Nc2cc(NCC3CNCCO3)c(C(F)(F)F)cn2)cn1 (stereo not shown)", "µg/mL", 0.995),
]

###

test summary: Phase 1 clinical trial, SRA737 monotherapy dose escalation
Assay type: in vivo, human
study conditions: human, in vivo, 160 mg, T1/2
experimental endpoint: half-life (h)

# compound, experimental endpoint, obs value
data = [
    ("N#Cc1cnc(Nc2cc(NCC3CNCCO3)c(C(F)(F)F)cn2)cn1 (stereo not shown)", "half-life", 13.8),
]

###

test summary: Phase 1 clinical trial, SRA737 in combination with gemcitabine dose escalation
Assay type: in vivo, human
study conditions: human, plasma, oral; 40 mg; Day −7; mean, n = 6
experimental endpoint: half-life

# molecule, experimental endpoint, obs value
records = [
    ("N#Cc1cnc(Nc2cc(NCC3CNCCO3)c(C(F)(F)F)cn2)cn1 (stereo not shown) [SRA737]", "half-life", "11.6 h"),
]
